# targetUnderTest: Biotin QP004.3 (biotin-PDL1-FC) (human) (UniProt Q9NZQ7)
# Sequence (Q9NZQ7 19-238 limits assumed): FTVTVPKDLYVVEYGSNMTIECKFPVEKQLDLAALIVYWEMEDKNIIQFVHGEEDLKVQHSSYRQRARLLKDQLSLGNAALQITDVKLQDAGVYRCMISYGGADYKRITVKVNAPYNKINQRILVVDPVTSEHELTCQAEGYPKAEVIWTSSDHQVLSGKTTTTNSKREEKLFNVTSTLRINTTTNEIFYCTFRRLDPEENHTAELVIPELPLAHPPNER
# testSummary: blocking ELISA, PD1-FC coated, biotin-PDL1-FC plus antibody; competitor PD1-FC
reportedEndpoint: ELISA reading at 100.0000 nM antibody

• QP324 (Fc fusion, not shown: a dimerising Fc or GST) EVQLLESGGGLVQPGGSLRLSCAASGFTYGTYAMSWVRQAPGKGLEWVACIDIYGRTSYTDPVKGRFTISQDNSKNTLYLQMNSLRAEDTAVYYCAARDFGYCTASWVHEGFSRYWGQGTLVTVSS = 0.661
• QP325 (Fc fusion, not shown: a dimerising Fc or GST) EVQLLESGGGLVQPGGSLRLSCAASGFTYGTYAMSWFRQAPGKGLEGVACIDIYGRTSYTDPVKGRFTISQDNSKNTLYLQMNSLRAEDTAVYYCAARDFGYCTASWVHEGFSRYWGQGTLVTVSS = 0.156

(a) QP1166 (Fc fusion, not shown: a dimerising Fc or GST) QVQLVESGGDSVQPGGSLRLSCAASGFTYGTYAMSWFRQAPGKEREGVACIDIYGRTSYTDPVKGRFTISQDNAKNTLYLQMNSLKPEDTAMYYCAARDFGYCTASWVHEGFSRYWGQGTQVTVSS
(b) QP320 (Fc fusion, not shown: a dimerising Fc or GST) EVQLLESGGGLVQPGGSLRLSCAASGFTYGTYAMSWVRQAPGKGLEWVSCIDIYGRASYTDPVKGRFTISRDNSKNTLYLQMNSLRAEDTAVYYCAARDFGYCTASWVHEGFSRYWGQGTLVTVSS
Of the two listed items, which has the higher ELISA reading at 100.0000 nM antibody? First: a Second: b Pick one and reply with its label.
b
